Value source: ChEMBL document CHEMBL1142018

// values below are reported pEC50
molecular target: 5-hydroxytryptamine receptor 2B (Homo sapiens, UniProt P41595); assay: Effective concentration towards 5-hydroxytryptamine 2B receptors transfected in HEK293 cells was determined by measuring [3H]phosphoinositol release; assay type: functional, cell-based; conditions: read-out: EC50
Sequence (P41595 whole entry): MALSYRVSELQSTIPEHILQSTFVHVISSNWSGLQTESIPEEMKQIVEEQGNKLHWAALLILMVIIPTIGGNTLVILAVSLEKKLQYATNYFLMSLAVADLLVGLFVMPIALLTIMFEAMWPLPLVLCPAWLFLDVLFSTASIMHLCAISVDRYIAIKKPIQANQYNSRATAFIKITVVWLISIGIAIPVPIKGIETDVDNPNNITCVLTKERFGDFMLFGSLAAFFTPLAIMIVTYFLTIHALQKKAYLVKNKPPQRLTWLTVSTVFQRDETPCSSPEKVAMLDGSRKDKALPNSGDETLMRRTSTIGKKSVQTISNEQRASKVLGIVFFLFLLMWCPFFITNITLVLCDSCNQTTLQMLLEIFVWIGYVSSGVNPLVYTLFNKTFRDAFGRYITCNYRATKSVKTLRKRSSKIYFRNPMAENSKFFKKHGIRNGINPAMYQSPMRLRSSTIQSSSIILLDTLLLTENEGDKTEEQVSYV
pEC50: −log10 of the molar value.
observation type: pEC50

{"compound": "CC1CNCCc2ccc(Br)cc21 (stereo not given)", "observation type": "pEC50", "bound type": "=", "recorded value": 5.82}
{"compound": "COc1cc2c(cc1Br)CCNCC2", "observation type": "pEC50", "bound type": "=", "recorded value": 6.40}
{"compound": "CCC1CNCCc2cc(OC)c(Br)cc21 (stereo not given)", "observation type": "pEC50", "bound type": "=", "recorded value": 7.40}
{"compound": "CC1CNCCc2ccc(Cl)c(Cl)c21 (stereo not given)", "observation type": "pEC50", "bound type": "=", "recorded value": 5.74}
{"compound": "CC1CNCCc2c(Cl)cccc21 (stereo not given)", "observation type": "pEC50", "bound type": "<", "recorded value": 5.30}

* * *

target: 5-hydroxytryptamine receptor 2B (Homo sapiens); assay: Effective concentration towards 5-hydroxytryptamine 2B receptors transfected in HEK293 cells was determined by measuring [3H]phosphoinositol release; type: functional, cell-based; settings: read-out: EC50
observation type: log10 of EC50 (log10 of the value in nM)

{"compound": "COc1cc2c(cc1Cl)C(C)CNCC2 (stereo not given)", "assay system": "5-hydroxytryptamine receptor 2B (Homo sapiens)", "observation type": "log10 of EC50", "recorded value": 2.15}
{"compound": "COc1cc2c(cc1Br)[C@H](C)CNCC2", "assay system": "5-hydroxytryptamine receptor 2B (Homo sapiens)", "observation type": "log10 of EC50", "recorded value": 1.48}
{"compound": "CC1CNCCc2cc(O)c(Br)cc21 (stereo not given)", "assay system": "5-hydroxytryptamine receptor 2B (Homo sapiens)", "observation type": "log10 of EC50", "recorded value": 2.28}
{"compound": "CC1CNCCc2cc(Cl)c(Cl)cc21 (stereo not given)", "assay system": "5-hydroxytryptamine receptor 2B (Homo sapiens)", "observation type": "log10 of EC50", "recorded value": 1.89}
{"compound": "Clc1ccc2c(c1)CCNCC2", "assay system": "5-hydroxytryptamine receptor 2B (Homo sapiens)", "observation type": "log10 of EC50", "recorded value": 3.00}
{"compound": "COc1cc2c(cc1Br)C(C)CNCC2 (stereo not given)", "assay system": "5-hydroxytryptamine receptor 2B (Homo sapiens)", "observation type": "log10 of EC50", "recorded value": 2.00}
{"compound": "CC1CNCCc2ccc(C(F)(F)F)cc21 (stereo not given)", "assay system": "5-hydroxytryptamine receptor 2B (Homo sapiens)", "observation type": "log10 of EC50", "recorded value": 2.58}
{"compound": "CC1CNCCc2cc(F)c(Cl)cc21 (stereo not given)", "assay system": "5-hydroxytryptamine receptor 2B (Homo sapiens)", "observation type": "log10 of EC50", "recorded value": 2.56}
{"compound": "COc1cc2c(cc1C(F)(F)F)C(C)CNCC2 (stereo not given)", "assay system": "5-hydroxytryptamine receptor 2B (Homo sapiens)", "observation type": "log10 of EC50", "recorded value": 2.11}
{"compound": "COc1cc2c(cc1Br)C(C(C)C)CNCC2 (stereo not given)", "assay system": "5-hydroxytryptamine receptor 2B (Homo sapiens)", "observation type": "log10 of EC50", "recorded value": 3.00}
{"compound": "COc1cc2c(cc1Br)[C@@H](C)CNCC2", "assay system": "5-hydroxytryptamine receptor 2B (Homo sapiens)", "observation type": "log10 of EC50", "recorded value": 2.34}
{"compound": "COc1ccc2c(c1)C(C)CNCC2 (stereo not given)", "assay system": "5-hydroxytryptamine receptor 2B (Homo sapiens)", "observation type": "log10 of EC50", "recorded value": 2.89}

* * *

Maximum response values for the compounds below.
target: 5-hydroxytryptamine receptor 2A (Homo sapiens); test: Percentage maximum response relative to serotonin towards 5-hydroxytryptamine 2A receptor in HEK293 cells; type: functional, cell-based
Sequence (P28223 whole entry): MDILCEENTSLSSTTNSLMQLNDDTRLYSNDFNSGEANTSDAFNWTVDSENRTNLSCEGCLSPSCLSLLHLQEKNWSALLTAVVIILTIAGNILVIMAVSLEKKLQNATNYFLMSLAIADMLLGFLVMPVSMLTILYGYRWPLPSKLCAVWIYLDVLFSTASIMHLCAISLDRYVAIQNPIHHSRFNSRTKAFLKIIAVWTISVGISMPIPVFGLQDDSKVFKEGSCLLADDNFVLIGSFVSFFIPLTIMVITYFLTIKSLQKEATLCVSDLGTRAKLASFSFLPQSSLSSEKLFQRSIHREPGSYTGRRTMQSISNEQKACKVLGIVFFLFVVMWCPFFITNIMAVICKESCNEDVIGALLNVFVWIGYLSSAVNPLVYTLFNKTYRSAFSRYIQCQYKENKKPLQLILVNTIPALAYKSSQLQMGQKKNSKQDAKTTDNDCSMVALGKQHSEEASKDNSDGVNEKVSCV
observation type: Maximum response (%)

{"entry smiles": "C[C@H]1CNCCc2ccc(Cl)c(Cl)c21", "readout units": "%", "recorded value": 100}
{"entry smiles": "C[C@@H]1CNCCc2ccc(Cl)c(Cl)c21", "readout units": "%", "recorded value": 35}
{"entry smiles": "C[C@H]1CNCCc2ccc(Cl)cc21", "readout units": "%", "recorded value": 70}
{"entry smiles": "Clc1ccc2c(c1)CCNCC2", "readout units": "%", "recorded value": 100}
{"entry smiles": "C[C@@H]1CNCCc2ccc(Cl)cc21", "readout units": "%", "recorded value": 70}

* * *

biological target: 5-hydroxytryptamine receptor 2A (Homo sapiens); assay: Effective concentration towards 5-hydroxytryptamine 2A receptors transfected in HEK293 cells was determined by measuring [3H]phosphoinositol release; type: functional, cell-based; conditions: read-out: EC50
The reader will find reported EC50 values listed item by item below.

{"molecule": "CC1CNCCc2ccc(Cl)c(Cl)c21 (centres undefined)", "readout units": "nM", "bound type": "=", "EC50": 220}
{"molecule": "CC1CNCCc2cc(Cl)c(Cl)cc21 (centres undefined)", "readout units": "nM", "bound type": "=", "EC50": 16}
{"molecule": "Clc1ccc2c(c1)CCNCC2", "readout units": "nM", "bound type": "=", "EC50": 90}
{"molecule": "C[C@H]1CNCCc2ccc(Cl)c(Cl)c21", "readout units": "nM", "bound type": "=", "EC50": 2400}
{"molecule": "COc1cc2c(cc1Br)CCNCC2", "readout units": "nM", "bound type": "=", "EC50": 100}
{"molecule": "CC1CNCCc2ccccc21 (centres undefined)", "readout units": "nM", "bound type": "=", "EC50": 1600}
{"molecule": "CC1CNCCc2c(Cl)cc(Cl)cc21 (centres undefined)", "readout units": "nM", "bound type": "=", "EC50": 170}
{"molecule": "CC1CNCCc2cc(O)c(Br)cc21 (centres undefined)", "readout units": "nM", "bound type": "=", "EC50": 63}
{"molecule": "CCC1CNCCc2cc(OC)c(Br)cc21 (centres undefined)", "readout units": "nM", "bound type": "=", "EC50": 100}
{"molecule": "COc1cc2c(cc1Br)[C@@H](C)CNCC2", "readout units": "nM", "bound type": "=", "EC50": 80}
{"molecule": "COc1cc2c(cc1Br)[C@H](C)CNCC2", "readout units": "nM", "bound type": "=", "EC50": 30}
{"molecule": "CC1CNCCc2ccc(Br)cc21 (centres undefined)", "readout units": "nM", "bound type": "=", "EC50": 510}
{"molecule": "CC1CNCCc2ccc(F)cc21 (centres undefined)", "readout units": "nM", "bound type": "=", "EC50": 1600}
{"molecule": "CC1CNCCc2ccc(Cl)c(F)c21 (centres undefined)", "readout units": "nM", "bound type": "=", "EC50": 840}
{"molecule": "CC1CNCCc2cc(OCc3ccccc3)c(Br)cc21 (centres undefined)", "readout units": "nM", "bound type": "=", "EC50": 22}
{"molecule": "COc1cc2c(cc1I)C(C)CNCC2 (centres undefined)", "readout units": "nM", "bound type": "=", "EC50": 61}
{"molecule": "COc1ccc2c(c1)CCNCC2C (centres undefined)", "readout units": "nM", "bound type": ">", "EC50": 10000}
{"molecule": "CC(C)Oc1cc2c(cc1Br)C(C)CNCC2 (centres undefined)", "readout units": "nM", "bound type": "=", "EC50": 97}
{"molecule": "COc1cc2c(cc1Br)C(C)CNCC2 (centres undefined)", "readout units": "nM", "bound type": "=", "EC50": 80}
{"molecule": "COc1cc2c(cc1Cl)C(C)CNCC2 (centres undefined)", "readout units": "nM", "bound type": "=", "EC50": 80}
{"molecule": "COc1ccc2c(c1)C(C)CNCC2 (centres undefined)", "readout units": "nM", "bound type": "=", "EC50": 940}
{"molecule": "C[C@@H]1CNCCc2ccc(Cl)c(Cl)c21", "readout units": "nM", "bound type": "=", "EC50": 135}
{"molecule": "CC1CNCCc2cc(F)c(Cl)cc21 (centres undefined)", "readout units": "nM", "bound type": "=", "EC50": 72}
{"molecule": "CC1CNCCc2cc(Cl)ccc21 (centres undefined)", "readout units": "nM", "bound type": "=", "EC50": 150}
{"molecule": "CC1CNCCc2c(Cl)cccc21 (centres undefined)", "readout units": "nM", "bound type": ">", "EC50": 5000}
{"molecule": "CC1CNCCc2cccc(Cl)c21 (centres undefined)", "readout units": "nM", "bound type": ">", "EC50": 5000}
{"molecule": "CCOc1cc2c(cc1Br)C(C)CNCC2 (centres undefined)", "readout units": "nM", "bound type": "=", "EC50": 110}
{"molecule": "COc1cc2c(cc1C(F)(F)F)C(C)CNCC2 (centres undefined)", "readout units": "nM", "bound type": "=", "EC50": 42}
{"molecule": "CC1CNCCc2ccc(C(F)(F)F)cc21 (centres undefined)", "readout units": "nM", "bound type": "=", "EC50": 100}
